test_description: Erythrocyte hemolysis assay;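 note: compounds tested at their MIC and at 4× MIC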
Assay type: cell-based, human
run_conditions: human, erythrocytes (5% suspension), at MIC for S. epidermidis ATCC12228; 1 hour, 37°C
measured_attribute: hemolysis at 1 h (%)
Return type: number; implicit unit %.

Here is how some compounds turned out for hemolysis at 1 h.
{"columns": ["compound", "hemolysis at 1 h, %"],
 "data": [
  ["Cc1ccc(C(O)O)cc1-c1ccc(/C=N/NC(=O)c2cc3c(ccc4ccccc43)o2)o1", 0.1],
  ["CCOC(=O)C1=C(c2ccccc2)N=c2s/c(=C/c3ccc(-c4cccc(C(O)O)c4)o3)c(=O)n2C1c1ccc2c(c1)OCO2 (stereo not drawn)", 0.1]
]}

Ask: Field request: hemolysis at 1 h | item: CCc1ccccc1N=C1SC(=Cc2ccc(OCC(O)O)c(OC)c2)C(=O)N1c1ccccc1CC
Result: 2.3

---

System: SrrB'
test_description: Inhibition of SrrB' autophosphorylation (Kinase-Glo)
Type: biochemical, S. epidermidis
run_conditions: compound 50 μM, 4 μg protein, 3 μM ATP
Inhibition of SrrB' phosphorylation: recorded values
The reply should contain only the number, in %.

Recorded results for 4 compounds are shown here.
{"columns": ["smiles_text", "Inhibition of SrrB' phosphorylation / %"],
 "data": [
  ["Cc1ccc(NC(=O)CN2C(=O)S/C(=C\\c3ccc(OCc4cccc(C(O)O)c4)cc3)C2=O)cc1", 2],
  ["CCc1ccccc1N=C1SC(=Cc2ccc(OCC(O)O)c(OC)c2)C(=O)N1c1ccccc1CC", 3],
  ["CC(=O)Nc1ccccc1C(=O)Nc1ccc2cc3ccc(NC(=O)c4ccccc4NC(C)=O)cc3nc2c1", 5],
  ["O=C(NNC(=O)c1c(Br)c(Br)c(Br)c(Br)c1C(O)O)c1cc(Cl)ccc1O", 3]
]}

Turning to the following compound.
Ask: I am curious: what Inhibition of SrrB' phosphorylation value has been reported for Cc1ccc(C(O)O)cc1-c1ccc(/C=N/NC(=O)c2cc3c(ccc4ccccc43)o2)o1 ?
Result: 3

---

measured_on: YycG' protein (Staphylococcus epidermidis)
Construct: of YycG (370aa to 610aa) was amplified by PCR; His-tag (pET28a) (N); made in house; host or cells: E. coli BL21 (pET28a, pETYycG')
Sequence (Q8CU87 370-610): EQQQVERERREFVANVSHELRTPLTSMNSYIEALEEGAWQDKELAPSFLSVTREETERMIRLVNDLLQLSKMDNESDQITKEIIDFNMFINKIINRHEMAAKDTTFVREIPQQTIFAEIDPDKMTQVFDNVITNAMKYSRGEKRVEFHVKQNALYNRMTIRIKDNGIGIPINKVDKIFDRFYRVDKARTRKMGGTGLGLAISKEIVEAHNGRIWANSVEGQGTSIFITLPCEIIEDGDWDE
test_description: Inhibition of YycG' ATPase activity / autophosphorylation (Kinase-Glo Luminescent Kinase Assay)
Type: biochemical
run_conditions: 4 μg YycG' protein, 3 μM ATP; read-out: IC50 for YycG'
measured_attribute: IC50
Number first, unit second: that is the form wanted.

{"columns": ["molecule", "IC50"],
 "data": [
  ["CCc1ccccc1N=C1SC(=Cc2ccc(OCC(O)O)c(OC)c2)C(=O)N1c1ccccc1CC [Compound 2]", "29 µM"],
  ["O=C(NNC(=O)c1c(Br)c(Br)c(Br)c(Br)c1C(O)O)c1cc(Cl)ccc1O [Compound 1]", "48 µM"],
  ["Cc1ccc(C(O)O)cc1-c1ccc(/C=N/NC(=O)c2cc3c(ccc4ccccc43)o2)o1 [Compound 4]", "13.5 µM"],
  ["Cc1ccc(NC(=O)CN2C(=O)S/C(=C\\c3ccc(OCc4cccc(C(O)O)c4)cc3)C2=O)cc1 [Compound 7]", "6.5 µM"],
  ["CCOC(=O)C1=C(c2ccccc2)N=c2s/c(=C/c3ccc(-c4cccc(C(O)O)c4)o3)c(=O)n2C1c1ccc2c(c1)OCO2 (stereo not drawn) [Compound 5]", "14 µM"]
]}

Ask: Consider the molecule CC(=O)Nc1ccccc1C(=O)Nc1ccc2cc3ccc(NC(=O)c4ccccc4NC(C)=O)cc3nc2c1 [Compound 3] and give its measured IC50.
Result: 15 µM
